Entries and their Kd values follow.
Target: SARS-COV-2 RBD extracellular domain expressed with a C-terminal myc-myc-hexahistidine tag (SARS-CoV-2)
Test: SPR (Biacore), mAb captured by anti-human Fc, RBD-mmH in solution, 25 C
The response must be a number in nM with no trailing unit.

{"BINDER": "mAb14281 (antibody, V domains shown) VH: QVQLVQSGADVKKPGASVKVSCKTSGYIFTGYYIHWVRQAPGQGLEWMGWINPNSGGTNSAQKFQGRVTMTRDTSISTVYMELSRLRSDDTAVYYCAKSNSFSVLDYNFDYWGQGTLVTVSS VL: SSELTQDPAVSVALGQTVRITCQGDSLRSYYASWYQQKPGQAPVLVIYDKNNRPSGIPDRFSGSSSGNTASLTITGAQAEDEADYYCNSRDSSRNHLVVFGGGTKLTVLG", "ENDPOINT_UNIT": "nM", "Kd": 5.02}
{"BINDER": "mAb14315 (antibody, V domains shown) VH: QVQLVQSGAEVKKPGSSVKVSCKASGDTFSTYAINWVRQAPGQGLEWMGRFIHIFGTANYAQKFQGRVTITADESTSTAYMELRSLRSEDTAVYYCARDGVDYGDYRPDYWGQGTLVTVSS VL: EIVLTQSPGTLSLSPGERATLSCRASQSVSSNYLAWYQQKPGQAPRLLIYGASSRATGIPERFSGSGSGTDFTLTISRLEPEDFAVYYCQQYGSSLYTFGQGTKLEIKR", "ENDPOINT_UNIT": "nM", "Kd": 2.49}
{"BINDER": "mAb15163 (antibody, V domains shown) VH: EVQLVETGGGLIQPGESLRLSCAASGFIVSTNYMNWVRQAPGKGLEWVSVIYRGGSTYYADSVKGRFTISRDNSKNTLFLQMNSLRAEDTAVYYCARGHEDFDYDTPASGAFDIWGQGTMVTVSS VL: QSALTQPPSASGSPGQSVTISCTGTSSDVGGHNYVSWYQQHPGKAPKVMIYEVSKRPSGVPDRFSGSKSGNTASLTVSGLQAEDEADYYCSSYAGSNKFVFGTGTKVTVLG", "ENDPOINT_UNIT": "nM", "Kd": 0.0779}
{"BINDER": "mAb15150 (antibody, V domains shown) VH: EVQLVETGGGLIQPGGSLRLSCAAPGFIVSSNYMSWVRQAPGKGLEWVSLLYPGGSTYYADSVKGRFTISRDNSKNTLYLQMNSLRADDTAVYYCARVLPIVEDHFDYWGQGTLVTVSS VL: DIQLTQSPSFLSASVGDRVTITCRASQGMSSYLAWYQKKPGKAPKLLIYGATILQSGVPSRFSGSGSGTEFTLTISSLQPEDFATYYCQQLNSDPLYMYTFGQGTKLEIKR", "ENDPOINT_UNIT": "nM", "Kd": 0.0594}
{"BINDER": "mAb15157 (antibody, V domains shown) VH: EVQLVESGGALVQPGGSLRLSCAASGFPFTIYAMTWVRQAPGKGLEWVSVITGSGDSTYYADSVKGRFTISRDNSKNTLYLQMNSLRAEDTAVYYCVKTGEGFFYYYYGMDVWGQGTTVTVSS VL: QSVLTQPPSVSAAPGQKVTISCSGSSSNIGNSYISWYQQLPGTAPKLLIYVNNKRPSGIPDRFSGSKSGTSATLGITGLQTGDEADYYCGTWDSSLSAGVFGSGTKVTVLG", "ENDPOINT_UNIT": "nM", "Kd": 4.49}

// field: Kd; key: mAb14280 (antibody, V domains shown) VH: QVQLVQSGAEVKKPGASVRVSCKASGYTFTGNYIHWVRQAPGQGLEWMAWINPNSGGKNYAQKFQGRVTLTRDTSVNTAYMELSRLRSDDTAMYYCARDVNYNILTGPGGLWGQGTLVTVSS VL: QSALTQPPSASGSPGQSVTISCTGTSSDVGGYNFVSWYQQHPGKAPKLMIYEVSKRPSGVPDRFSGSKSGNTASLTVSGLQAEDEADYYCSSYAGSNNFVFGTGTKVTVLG ; value = 15.4

// field: Kd; key: mAb15159 (antibody, V domains shown) VH: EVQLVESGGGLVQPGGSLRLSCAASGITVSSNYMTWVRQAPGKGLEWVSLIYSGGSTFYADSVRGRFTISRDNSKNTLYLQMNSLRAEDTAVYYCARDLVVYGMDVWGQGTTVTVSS VL: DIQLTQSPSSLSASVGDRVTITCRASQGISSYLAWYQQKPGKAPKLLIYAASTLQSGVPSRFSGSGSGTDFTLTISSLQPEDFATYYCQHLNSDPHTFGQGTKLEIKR ; value = 2.66

// field: Kd; key: mAb14284 (antibody, V domains shown) VH: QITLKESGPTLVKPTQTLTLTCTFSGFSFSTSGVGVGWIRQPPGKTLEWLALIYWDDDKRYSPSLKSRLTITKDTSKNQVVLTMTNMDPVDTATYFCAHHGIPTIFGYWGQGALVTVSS VL: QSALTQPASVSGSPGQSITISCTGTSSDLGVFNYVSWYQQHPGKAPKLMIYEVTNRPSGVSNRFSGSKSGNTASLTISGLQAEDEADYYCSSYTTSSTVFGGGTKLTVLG ; value = 0.824

// field: Kd; key: mAb14256 (antibody, V domains shown) VH: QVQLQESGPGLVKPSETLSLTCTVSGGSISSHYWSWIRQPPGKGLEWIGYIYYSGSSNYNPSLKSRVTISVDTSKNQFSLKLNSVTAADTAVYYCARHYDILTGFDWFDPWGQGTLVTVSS VL: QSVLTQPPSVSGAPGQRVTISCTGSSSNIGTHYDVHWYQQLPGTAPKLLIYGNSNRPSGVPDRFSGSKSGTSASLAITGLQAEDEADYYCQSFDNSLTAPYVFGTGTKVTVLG ; value = 8.32

// field: Kd; key: mAb14312 (antibody, V domains shown) VH: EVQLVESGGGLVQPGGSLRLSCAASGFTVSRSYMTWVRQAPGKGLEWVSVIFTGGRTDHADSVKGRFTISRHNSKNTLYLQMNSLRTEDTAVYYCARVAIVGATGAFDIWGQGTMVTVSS VL: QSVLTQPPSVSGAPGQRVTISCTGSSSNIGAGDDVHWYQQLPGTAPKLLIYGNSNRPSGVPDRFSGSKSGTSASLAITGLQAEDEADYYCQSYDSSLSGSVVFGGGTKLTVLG ; value = 0.606
